The values you see were collected from the supplement of paper PMC12855868.

Examples of variants with documented scaled log2 fold change follow.
B1: library; numbered along this chain (parent)
chain: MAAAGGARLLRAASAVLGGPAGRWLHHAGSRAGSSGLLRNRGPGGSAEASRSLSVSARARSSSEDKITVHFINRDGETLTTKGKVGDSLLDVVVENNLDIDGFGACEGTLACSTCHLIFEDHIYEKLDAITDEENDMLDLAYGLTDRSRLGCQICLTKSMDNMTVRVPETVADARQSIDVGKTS

variants of: B1; assay: scaled log2 fold change in cell abundance, elesclomol vs control (0 = silent mean, 1 = nonsense mean) (scaled log2 ratio); higher = higher viability under elesclomol (loss of FDX1 cuproptosis function); settings: with HEK293T FDX1 KO; elesclomol 40 nM; glucose 10 mM; 11 days;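 further: variant abundance is its share of total variant reads in each endpoint sample, from next-generation sequencing of the integrated ORF PCR-amplified out of genomic DNA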
EXPERIMENTAL_ENDPOINT: scaled log2 fold change

    variant_descriptor  reading
 0                H70G     1.09
 1               L144G   -0.323
 2               N162Q    -1.17
 3                S54R   -0.406
 4                R41A    0.851
 5                V85T    -0.55
 6               R149W      1.1
 7                L38Y   -0.184
 8                T78N   -0.273
 9               G104S    0.363
10                A59F   -0.721
11                L25R    0.222
12               S113T    0.232
13                S88G    0.309
14                S56V   -0.368
15               D139T   -0.694
16               L156G    0.904
17                 R8F   -0.798
18               F119N    0.538
19                R39C    0.689
20               K182S   -0.584
21               G143P   -0.153
22               L127K    0.253
23                T68F    0.914
24               F103M    0.516
25                S34D   -0.389
26               R166D   -0.407
27                A21R  -0.0217
28                I72A   -0.682
29                S88V   0.0665
30               D132V   -0.737
31               I154F    0.781
32               T157M  0.00875
33                A47T    0.802
34               V171I    0.238
35               C152S     1.18
36               L150E     1.27
37               T170I    0.126
38                R39T   0.0293
39               P168V  -0.0343
40                I67N    0.681
41               K126R   -0.286
42                 L9Q     1.04
43               E120A  -0.0676
44               C155M    0.969
45                G19I  -0.0307
46               K158D     0.95
47                G83V    0.224
48                A57F   -0.202
49               L117A    0.115
50               D136W    0.105
51               R166T   -0.473
52                W24C  -0.0787
53               E134W     1.32
54                G18T   0.0755
55                N96K   -0.121
56               A105H   -0.265
57                G36K   -0.253
